# recombinant barcode read abundance (log10) per entry
ASSAY METHOD TEXT: recombinant barcode read abundance after kanamycin selection (control-corrected) (log10(CPM+1)); higher = more efficient recombination; sequences stand for … in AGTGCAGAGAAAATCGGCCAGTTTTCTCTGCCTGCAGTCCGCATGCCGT…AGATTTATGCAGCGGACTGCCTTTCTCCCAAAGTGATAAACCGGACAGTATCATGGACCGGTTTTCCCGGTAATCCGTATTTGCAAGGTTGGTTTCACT; site = the 11-nt target
Give the figure by itself; no unit, no explanation.

AGAACTACTTGGGTTCTAACCTGTTGCCT (site AGGACTACTAG); 0.162

Problem: Query: recombinant barcode read abundance (log10); subject: AGTCTAGCTTGGGTTCTAACCTGTTGCCT (site AGTCTAGCTCG)
Solution: 0.692

* * *

ASSAY METHOD TEXT: recombinant UMI read abundance after kanamycin selection (control-corrected) (log10(CPM+1)); higher = more efficient recombination; extreme values may be limits of the assay; sequences stand for … in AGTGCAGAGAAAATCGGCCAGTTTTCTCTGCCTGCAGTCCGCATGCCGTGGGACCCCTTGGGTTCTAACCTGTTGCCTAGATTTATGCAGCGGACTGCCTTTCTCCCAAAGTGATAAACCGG…AGGTTGGTTTCACT; site = the 11-nt donor
# recombinant UMI read abundance (log10) per entry
Give the figure by itself; no unit, no explanation.

// solved cases for recombinant UMI read abundance (log10) follow
GGTACGTCATGGACCGGTTTTCCCGGTAATCCGTATTTGTT (site GGTAAGTCTAA); 0
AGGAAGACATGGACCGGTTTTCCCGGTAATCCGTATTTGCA (site AGAGAGACTTG); 1.79
GTTCGACCATGGACCGGTTTTCCCGGTAATCCGTATTTGCA (site GTTCGACCTTG); 0
GGGAGGACATGGACCGGTTTTCCCGGTAATCCGTATTTGCC (site GGGAGGACTGG); 2.04
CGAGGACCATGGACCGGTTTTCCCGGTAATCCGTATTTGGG (site CGACGACCTCC); 0.00414
TTCCGAACATGGACCGGTTTTCCCGGTAATCCGTATTTGGT (site TTCCGAACTAC); 0.00692

Now look at this one.
Problem: Query: recombinant UMI read abundance (log10); subject: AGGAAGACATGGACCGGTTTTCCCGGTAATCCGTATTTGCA (site AGGATGACTTG)
Solution: 0.688

* * *

ASSAY METHOD TEXT: recombinant barcode read abundance after kanamycin selection (control-corrected) (log10(CPM+1)); higher = more efficient recombination; sequences stand for … in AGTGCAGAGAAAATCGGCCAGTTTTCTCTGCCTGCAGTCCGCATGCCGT…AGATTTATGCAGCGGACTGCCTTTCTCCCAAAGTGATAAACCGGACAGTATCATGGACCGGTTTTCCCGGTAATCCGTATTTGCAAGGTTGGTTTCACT; site = the 11-nt target
EXPERIMENTAL ENDPOINT: recombinant barcode read abundance (log10)
Give the figure by itself; no unit, no explanation.

// solved cases for recombinant barcode read abundance (log10) follow
CTATTGTCTTGGGTTCTAACCTGTTGCGA (site CTATTGTCTAC); 0.0206
GTAGACCCTTGGGTTCTAACCTGTTGCCT (site ATAGACCCTAG); 2.3
GCTCATGCTTGGGTTCTAACCTGTTGCCT (site GCTCATTCTAG); 0.132
GCACACACTTGGGTTCTAACCTGTTGCTG (site GCACACACTCA); 2.5

Now look at this one.
Problem: Query: recombinant barcode read abundance (log10); subject: TTAGTAGCTTGGGTTCTAACCTGTTGCCT (site TTAGTCGCTAG)
Solution: 0.0769
